The origin of these recorded values is patent US7053234B2.

TESTED TARGET: RNA-pol S. aureus (Staphylococcus aureus, UniProt P47768+Q2G0N5)
Sequence (Q2G0N5 whole entry): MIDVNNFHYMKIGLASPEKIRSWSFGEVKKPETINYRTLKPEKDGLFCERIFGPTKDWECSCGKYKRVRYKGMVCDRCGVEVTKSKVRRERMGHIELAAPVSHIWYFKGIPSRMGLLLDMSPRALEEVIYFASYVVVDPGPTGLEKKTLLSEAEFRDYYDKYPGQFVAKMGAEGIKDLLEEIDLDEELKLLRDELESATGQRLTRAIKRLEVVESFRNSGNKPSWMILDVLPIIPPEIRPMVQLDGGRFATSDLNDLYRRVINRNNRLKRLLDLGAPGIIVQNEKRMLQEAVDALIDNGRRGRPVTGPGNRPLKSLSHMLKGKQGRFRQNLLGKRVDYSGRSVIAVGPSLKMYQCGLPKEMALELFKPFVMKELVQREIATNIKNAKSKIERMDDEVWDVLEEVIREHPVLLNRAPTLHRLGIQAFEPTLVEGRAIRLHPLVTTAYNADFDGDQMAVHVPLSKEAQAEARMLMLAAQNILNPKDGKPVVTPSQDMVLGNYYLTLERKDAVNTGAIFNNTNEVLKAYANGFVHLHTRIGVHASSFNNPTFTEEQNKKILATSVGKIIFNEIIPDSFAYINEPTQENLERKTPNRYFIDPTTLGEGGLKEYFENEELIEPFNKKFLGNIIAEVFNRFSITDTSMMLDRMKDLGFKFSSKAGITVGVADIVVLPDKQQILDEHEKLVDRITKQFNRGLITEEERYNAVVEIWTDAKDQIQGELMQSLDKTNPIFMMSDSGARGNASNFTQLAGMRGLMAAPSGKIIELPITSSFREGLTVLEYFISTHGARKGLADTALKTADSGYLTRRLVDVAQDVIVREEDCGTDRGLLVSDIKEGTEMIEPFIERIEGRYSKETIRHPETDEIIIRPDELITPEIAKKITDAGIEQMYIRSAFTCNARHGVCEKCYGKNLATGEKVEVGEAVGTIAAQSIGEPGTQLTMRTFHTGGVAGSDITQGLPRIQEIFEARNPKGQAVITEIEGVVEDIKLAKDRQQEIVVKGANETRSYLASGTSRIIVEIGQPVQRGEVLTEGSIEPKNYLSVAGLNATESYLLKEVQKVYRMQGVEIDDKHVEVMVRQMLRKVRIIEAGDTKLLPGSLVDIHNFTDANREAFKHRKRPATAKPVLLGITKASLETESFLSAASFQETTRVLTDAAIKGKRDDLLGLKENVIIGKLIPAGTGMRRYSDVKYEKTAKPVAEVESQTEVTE
Sequence (Q2FW32 whole entry, further chain): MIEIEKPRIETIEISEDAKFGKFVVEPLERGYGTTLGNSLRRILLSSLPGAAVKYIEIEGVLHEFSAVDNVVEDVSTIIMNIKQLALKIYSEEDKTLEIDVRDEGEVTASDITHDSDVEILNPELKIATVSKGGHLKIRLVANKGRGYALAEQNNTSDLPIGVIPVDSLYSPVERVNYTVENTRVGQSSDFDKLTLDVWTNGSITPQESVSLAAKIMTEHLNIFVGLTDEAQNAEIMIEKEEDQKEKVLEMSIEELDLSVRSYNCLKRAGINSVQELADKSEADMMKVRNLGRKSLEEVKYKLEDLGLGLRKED
Sequence (P47768 whole entry): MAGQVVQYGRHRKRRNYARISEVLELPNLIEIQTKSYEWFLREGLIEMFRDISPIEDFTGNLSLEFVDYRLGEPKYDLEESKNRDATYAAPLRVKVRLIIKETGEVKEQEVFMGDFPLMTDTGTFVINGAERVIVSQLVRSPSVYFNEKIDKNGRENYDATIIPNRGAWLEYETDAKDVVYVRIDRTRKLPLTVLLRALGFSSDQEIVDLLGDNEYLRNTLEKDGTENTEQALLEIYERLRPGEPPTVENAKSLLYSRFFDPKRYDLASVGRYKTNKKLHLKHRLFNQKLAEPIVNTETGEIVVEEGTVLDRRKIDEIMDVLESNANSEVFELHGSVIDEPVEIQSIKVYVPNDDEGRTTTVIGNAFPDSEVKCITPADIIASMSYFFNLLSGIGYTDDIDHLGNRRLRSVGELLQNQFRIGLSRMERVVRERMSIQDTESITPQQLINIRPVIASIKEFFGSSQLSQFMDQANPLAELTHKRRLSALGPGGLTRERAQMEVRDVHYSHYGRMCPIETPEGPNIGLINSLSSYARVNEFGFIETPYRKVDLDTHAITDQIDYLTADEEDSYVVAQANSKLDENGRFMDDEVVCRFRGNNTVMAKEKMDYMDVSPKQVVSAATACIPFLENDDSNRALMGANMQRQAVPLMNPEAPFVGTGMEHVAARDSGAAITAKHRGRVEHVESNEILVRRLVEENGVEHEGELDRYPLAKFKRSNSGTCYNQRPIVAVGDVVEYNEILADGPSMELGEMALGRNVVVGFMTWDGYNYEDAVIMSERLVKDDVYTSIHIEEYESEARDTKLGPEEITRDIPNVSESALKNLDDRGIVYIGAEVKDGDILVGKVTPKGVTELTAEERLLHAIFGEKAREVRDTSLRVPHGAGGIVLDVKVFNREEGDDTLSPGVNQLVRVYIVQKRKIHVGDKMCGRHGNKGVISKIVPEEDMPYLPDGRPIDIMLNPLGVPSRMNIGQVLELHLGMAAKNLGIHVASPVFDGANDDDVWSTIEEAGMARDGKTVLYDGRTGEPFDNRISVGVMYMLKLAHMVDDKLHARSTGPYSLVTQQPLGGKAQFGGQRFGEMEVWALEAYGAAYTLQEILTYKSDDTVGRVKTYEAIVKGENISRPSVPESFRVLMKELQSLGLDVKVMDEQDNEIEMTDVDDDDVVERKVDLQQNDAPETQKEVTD
ASSAY: RNA polymerase inhibition assay (S. aureus enzyme)
Format: biochemical
TEST PARAMETERS: Table 2; read-out: RNA-pol IC50 (μM) S. aureus
Catalogue of compounds with associated IC50

COMPOUND | IC50
O=C(COc1ccc(Cl)cc1)Nc1cc(NCCNc2nc3cc(Cl)c(Cl)cc3[nH]2)cc(C(F)(F)F)c1 | < 10 µM
COCC1CCCN1c1cc(NC(=O)CNc2ccc(Cl)c(C(F)(F)F)c2)cc(C(F)(F)F)c1 (stereo not drawn) | > 50 µM
O=C(COc1ccc(Cl)cc1)Nc1cc(NC(=O)Nc2ccc(Cl)c(C(F)(F)F)c2)cc(C(F)(F)F)c1 | > 50 µM
O=C(CNc1ccc(Cl)c(C(F)(F)F)c1)Nc1cc(NC(=O)COc2ccc(Cl)cc2)cc(C(F)(F)F)c1 | > 50 µM
O=C(Nc1cc(N2CCNC2=O)cc(C(F)(F)F)c1)Nc1ccc(Cl)c(C(F)(F)F)c1 | 10 to 50 µM
O=C(CSc1ccccc1)Nc1cc(COC(=O)Nc2ccc(Cl)c(C(F)(F)F)c2)cc(C(F)(F)F)c1 | 10 to 50 µM

----------
TESTED TARGET: Sigma^70 saturated E. coli RNA Polymerase (Escherichia coli, UniProt P0A8T7+P0A8V2)
Construct: purchased Epicenter
ASSAY: RNA polymerase inhibition assay (E. coli enzyme)
Format: biochemical
TEST PARAMETERS: Table 1; enzyme not named, method uses E. coli RNA polymerase; read-out: IC50
pIC50: −log10 of the molar value.
Catalogue of compounds with associated pIC50

SUBSTANCE SMILES | pIC50
ON=C(Nc1cccc(Cl)c1)c1ccc(Cl)c(C(F)(F)F)c1 | > 5.00
ON=C(Nc1cccc(F)c1)c1cccc(C(F)(F)F)c1 | 4.30 to 5.00
N#Cc1cccc(NC(=NO)c2cccc(C(F)(F)F)c2)c1 | < 4.30

----------
Tested on: E. coli (tolC)
ASSAY: MIC determination, E. coli (tolC)
Format: cell-based
TEST PARAMETERS: Escherichia coli, 16 h, read-out: E. c(tolC) (bacterial MIC)
OBSERVATION TYPE: MIC

SUBSTANCE SMILES | RECORDED VALUE
ON=C(Nc1cccc(Br)c1)c1cccc(C(F)(F)F)c1 | < 40 µM
ON=C(Nc1cccc(Cl)c1)c1ccc(Cl)cc1 | < 40 µM
ON=C(Nc1cccc(Cl)c1)c1ccc(Cl)c(C(F)(F)F)c1 | < 40 µM
ON=C(Nc1cccc(F)c1)c1ccc(Cl)c(Cl)c1 | < 40 µM
O=[N+]([O-])c1cc(C(=NO)Nc2ccccc2)ccc1Cl | > 125 µM
ON=C(Nc1ccccc1)c1ccc(Cl)c(C(F)(F)F)c1 | < 40 µM
ON=C(Nc1ccccc1)c1ccc(F)c(C(F)(F)F)c1 | < 40 µM
N#Cc1cccc(NC(=NO)c2cccc(C(F)(F)F)c2)c1 | 40 to 125 µM
ON=C(Nc1cccc(Cl)c1)c1cccc(OC(F)(F)F)c1 | < 40 µM
ON=C(Nc1cccc(F)c1)c1cccc(C(F)(F)F)c1 | < 40 µM
ON=C(Nc1cccc(Oc2ccccc2)c1)c1cccc(C(F)(F)F)c1 | < 40 µM
ON=C(Nc1ccccc1)c1cc(C(F)(F)F)cc(C(F)(F)F)c1 | < 40 µM

----------
Tested on: S. aureus
ASSAY: MIC determination, S. aureus
Type: cell-based
TEST PARAMETERS: Staphylococcus aureus; Table 1; MIC, 16 hours at 37° C. in LB medium; read-out: S. au (bacterial MIC)
OBSERVATION TYPE: MIC

SUBSTANCE SMILES | OBSERVATION TYPE | RECORDED VALUE
ON=C(Nc1cccc(Br)c1)c1cccc(C(F)(F)F)c1 | MIC | 40 to 125 µM
N#Cc1cccc(NC(=NO)c2cccc(C(F)(F)F)c2)c1 | MIC | > 125 µM
ON=C(Nc1cccc(F)c1)c1ccc(Cl)c(Cl)c1 | MIC | 40 to 125 µM
ON=C(Nc1cccc(Cl)c1)c1ccc(Cl)c(C(F)(F)F)c1 | MIC | < 40 µM
ON=C(Nc1cccc(Cl)c1)c1cccc(OC(F)(F)F)c1 | MIC | 40 to 125 µM
ON=C(Nc1ccccc1)c1cc(C(F)(F)F)cc(C(F)(F)F)c1 | MIC | 40 to 125 µM
ON=C(Nc1ccccc1)c1ccc(F)c(C(F)(F)F)c1 | MIC | > 125 µM
ON=C(Nc1cccc(Oc2ccccc2)c1)c1cccc(C(F)(F)F)c1 | MIC | < 40 µM
ON=C(Nc1cccc(Cl)c1)c1ccc(Cl)cc1 | MIC | 40 to 125 µM

----------
TESTED TARGET: Sigma^70 saturated E. coli RNA Polymerase (Escherichia coli, UniProt P0A8T7+P0A8V2)
Construct: purchased Epicenter
ASSAY: RNA polymerase inhibition assay (E. coli enzyme)
Assay type: biochemical
TEST PARAMETERS: Table 1; enzyme not named, method uses E. coli RNA polymerase; read-out: IC50
Catalogue of molecules with associated IC50
OBSERVATION TYPE: IC50

MOLECULE | TESTED TARGET | RECORDED VALUE
ON=C(Nc1cccc(Cl)c1)c1cccc(OC(F)(F)F)c1 [R′=3-OCF3, R″=H, R′″=3-Cl] | Sigma^70 saturated E. coli RNA Polymerase (Escherichia coli, UniProt P0A8T7+P0A8V2) | 10 to 50 µM
ON=C(Nc1cccc(Br)c1)c1cccc(C(F)(F)F)c1 [R′=3-CF3, R″=H, R′″=3-Br] | Sigma^70 saturated E. coli RNA Polymerase (Escherichia coli, UniProt P0A8T7+P0A8V2) | 10 to 50 µM
ON=C(Nc1cccc(Oc2ccccc2)c1)c1cccc(C(F)(F)F)c1 [R′=3-CF3, R″=H, R′″=3-OPh] | Sigma^70 saturated E. coli RNA Polymerase (Escherichia coli, UniProt P0A8T7+P0A8V2) | > 50 µM
O=[N+]([O-])c1cc(C(=NO)Nc2ccccc2)ccc1Cl [Example 15] | Sigma^70 saturated E. coli RNA Polymerase (Escherichia coli, UniProt P0A8T7+P0A8V2) | 10 to 50 µM
ON=C(Nc1ccccc1)c1ccc(F)c(C(F)(F)F)c1 [Example 16] | Sigma^70 saturated E. coli RNA Polymerase (Escherichia coli, UniProt P0A8T7+P0A8V2) | 10 to 50 µM
ON=C(Nc1ccccc1)c1cc(C(F)(F)F)cc(C(F)(F)F)c1 [R′=3-CF3, R″=5-CF3, R′″=H] | Sigma^70 saturated E. coli RNA Polymerase (Escherichia coli, UniProt P0A8T7+P0A8V2) | > 50 µM
ON=C(Nc1cccc(F)c1)c1ccc(Cl)c(Cl)c1 [R′=3-Cl, R″=4-Cl, R′″=3-F] | Sigma^70 saturated E. coli RNA Polymerase (Escherichia coli, UniProt P0A8T7+P0A8V2) | 10 to 50 µM
ON=C(Nc1cccc(Cl)c1)c1ccc(Cl)cc1 [R′=4-Cl, R″=H, R′″=3-Cl] | Sigma^70 saturated E. coli RNA Polymerase (Escherichia coli, UniProt P0A8T7+P0A8V2) | > 50 µM
ON=C(Nc1ccccc1)c1ccc(Cl)c(C(F)(F)F)c1 [Example 65] | Sigma^70 saturated E. coli RNA Polymerase (Escherichia coli, UniProt P0A8T7+P0A8V2) | < 10 µM

----------
TESTED TARGET: RNA-pol S. aureus (Staphylococcus aureus, UniProt P47768+Q2G0N5)
ASSAY: RNA polymerase inhibition assay (S. aureus enzyme)
Type: biochemical
TEST PARAMETERS: Table 2; read-out: RNA-pol IC50 (μM) S. aureus

MOLECULE | IC50
O=C(CNc1ccc(N2CCCCC2)c(C(F)(F)F)c1)Nc1cc(COc2cccc(Cl)c2)cc(C(F)(F)F)c1 [Compound 136] | < 10 µM
C=CCOc1cc(NC(=O)Nc2ccc(Cl)c(C(F)(F)F)c2)cc(C(F)(F)F)c1 [Compound 134] | < 10 µM
O=C(Nc1cc(OCc2cccc(Cl)c2)cc(C(F)(F)F)c1)Nc1ccc(Cl)c(C(F)(F)F)c1 [Compound 135] | 10 to 50 µM
COCOc1cc(NC(=O)Nc2ccc(Cl)c(C(F)(F)F)c2)cc(C(F)(F)F)c1 [Compound 132] | 10 to 50 µM
[N-]=[N+]=Nc1cc(/C(=N/O)Nc2cccc(Cl)c2)cc(C(F)(F)F)c1F [Compound 115] | > 50 µM
Nc1cc(/C(=N/O)Nc2cccc(Cl)c2)cc(C(F)(F)F)c1F [Compound 116] | > 50 µM
COCC1CCCN1c1cc(NC(=O)Nc2ccc(Cl)c(C(F)(F)F)c2)cc(C(F)(F)F)c1 (stereo not shown) [Compound 124] | 10 to 50 µM
